The measured values listed here are drawn from patent US8324250B2.

Target Or System: recombinant human NK3 receptor (Homo sapiens)
Construct: expressed in transfected cells; host or cells: HEK293 cells (transient expression), membranes
Sequence (P29371 1-465): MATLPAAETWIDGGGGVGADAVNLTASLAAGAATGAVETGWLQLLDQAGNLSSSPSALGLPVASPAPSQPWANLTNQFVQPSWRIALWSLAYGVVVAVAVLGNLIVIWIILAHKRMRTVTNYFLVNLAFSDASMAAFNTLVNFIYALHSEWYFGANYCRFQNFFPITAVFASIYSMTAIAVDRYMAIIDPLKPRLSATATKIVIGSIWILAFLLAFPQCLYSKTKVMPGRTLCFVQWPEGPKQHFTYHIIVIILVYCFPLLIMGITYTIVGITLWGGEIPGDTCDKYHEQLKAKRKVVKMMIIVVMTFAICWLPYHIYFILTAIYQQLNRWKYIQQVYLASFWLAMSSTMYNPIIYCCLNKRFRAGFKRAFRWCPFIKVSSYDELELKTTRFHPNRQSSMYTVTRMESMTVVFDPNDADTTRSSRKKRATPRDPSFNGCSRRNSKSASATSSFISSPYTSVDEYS
Assay Overview: [3H]SR142801 competition binding assay
Test Parameters: membranes from HEK293 cells transiently expressing recombinant human NK3 receptor; [3H]SR142801 radioligand; 75 min at RT; Ki by Cheng-Prussoff; read-out: Data Ki (hNK-3 receptor affinity)
Attribute Measured: log10 Ki (log10 of the value in nM)

[
  {
    "Molecule": "C[C@H](NC(=O)C1(c2ccc(F)cc2)CCN(C(=O)c2ccc(-c3ccc(F)cc3)cc2)CC1)c1ccc(F)cc1",
    "Target Or System": "recombinant human NK3 receptor (Homo sapiens)",
    "Attribute Measured": "log10 Ki",
    "Result Number": 1.26
  },
  {
    "Molecule": "CCc1nc(-c2ccc(C(=O)N3CCC(C(=O)N[C@@H](C)c4ccccc4)(c4ccccc4)CC3)cc2)no1",
    "Target Or System": "recombinant human NK3 receptor (Homo sapiens)",
    "Attribute Measured": "log10 Ki",
    "Result Number": 1.45
  },
  {
    "Molecule": "C[C@H](NC(=O)C1(c2ccccc2)CCN(C(=O)c2ccc(-n3cncn3)cc2)CC1)c1ccccc1",
    "Target Or System": "recombinant human NK3 receptor (Homo sapiens)",
    "Attribute Measured": "log10 Ki",
    "Result Number": 1.99
  },
  {
    "Molecule": "Cc1ccc(-c2nc(C(=O)N3CCC(C(=O)N[C@@H](C)c4ccccc4)(c4ccccc4)CC3)cs2)cc1",
    "Target Or System": "recombinant human NK3 receptor (Homo sapiens)",
    "Attribute Measured": "log10 Ki",
    "Result Number": 2.00
  },
  {
    "Molecule": "Cc1nc(-c2ccc(C(=O)N3CCC(C(=O)NC(c4ccc(F)cc4)C(C)C)(c4ccc(F)cc4)CC3)cc2)no1 (centres unmarked)",
    "Target Or System": "recombinant human NK3 receptor (Homo sapiens)",
    "Attribute Measured": "log10 Ki",
    "Result Number": 1.08
  },
  {
    "Molecule": "C[C@H](NC(=O)C1(c2ccc(F)cc2)CCN(C(=O)N2CCN(c3ccc(F)cc3)CC2)CC1)c1ccc(F)cc1",
    "Target Or System": "recombinant human NK3 receptor (Homo sapiens)",
    "Attribute Measured": "log10 Ki",
    "Result Number": 1.26
  },
  {
    "Molecule": "C=C(C)CC1(C(=O)N[C@@H](C)c2ccc(F)cc2)CCN(C(=O)c2ccc(-c3ccc(F)cc3)cc2)CC1",
    "Target Or System": "recombinant human NK3 receptor (Homo sapiens)",
    "Attribute Measured": "log10 Ki",
    "Result Number": 1.55
  },
  {
    "Molecule": "Cc1noc(-c2ccc(C(=O)N3CCC(C(=O)N[C@@H](C)C4CCCCC4)(c4ccc(F)cc4)CC3)cc2)n1",
    "Target Or System": "recombinant human NK3 receptor (Homo sapiens)",
    "Attribute Measured": "log10 Ki",
    "Result Number": 0.41
  },
  {
    "Molecule": "O=C(c1ccc(-c2ccc(F)cc2)cc1)N1CCC(C(=O)NC(c2ccccc2)C(F)(F)F)(c2ccc(F)cc2)CC1 (centres unmarked)",
    "Target Or System": "recombinant human NK3 receptor (Homo sapiens)",
    "Attribute Measured": "log10 Ki",
    "Result Number": 1.56
  },
  {
    "Molecule": "C[C@H](NC(=O)C1(c2ccccc2)CCN(C(=O)N2CCN(c3cc(C#N)ccn3)CC2)CC1)c1ccccc1",
    "Target Or System": "recombinant human NK3 receptor (Homo sapiens)",
    "Attribute Measured": "log10 Ki",
    "Result Number": 1.70
  },
  {
    "Molecule": "C[C@H](NC(=O)C1(c2ccccc2)CCN(C(=O)N2CCN(C3CCCC3)CC2)CC1)c1ccccc1",
    "Target Or System": "recombinant human NK3 receptor (Homo sapiens)",
    "Attribute Measured": "log10 Ki",
    "Result Number": 1.31
  },
  {
    "Molecule": "Cc1ccc(N2CCN(C(=O)N3CCC(C(=O)N[C@@H](C)c4ccccc4)(c4ccccc4)CC3)CC2)cc1",
    "Target Or System": "recombinant human NK3 receptor (Homo sapiens)",
    "Attribute Measured": "log10 Ki",
    "Result Number": 1.85
  },
  {
    "Molecule": "Cc1noc(-c2ccc(C(=O)N3CCC(C(=O)N[C@@H](C)c4ccc(F)cc4)(C4CCCCC4)CC3)cc2)n1",
    "Target Or System": "recombinant human NK3 receptor (Homo sapiens)",
    "Attribute Measured": "log10 Ki",
    "Result Number": 1.91
  },
  {
    "Molecule": "C[C@H](NC(=O)C1(c2ccccc2)CCN(C(=O)c2ccc(-c3ccc(C(F)(F)F)cn3)cc2)CC1)c1ccccc1",
    "Target Or System": "recombinant human NK3 receptor (Homo sapiens)",
    "Attribute Measured": "log10 Ki",
    "Result Number": 1.43
  }
]
